- System: SF-539 CNS
- assay.method.text: NCI-60 one-dose screen, 48 h
- condition.details: 10 µM unless noted
About 83,000 compounds went through this panel and 20% of them were active in at least one assay; those are over-represented in the sample as a whole. The source made the active and inactive calls. Rule for the calls: active = growth percent below 10; inactive = the rest.
Your reply should match one of these outcome classes. active, inactive

CC1=NN(c2ccc(S(=O)(=O)O)cc2Cl)C(=O)C1 : inactive
COc1cc(-c2cc3ncccc3c3[nH]c(=O)c4cccnc4c23)cc(OC)c1OC : active
COc1ccc(C(=O)/C=C/c2cc(-c3cc(OC)c(OC)c(OC)c3)n[nH]2)cc1OC : active
CCCCC[C@H]1CC=C2C(=O)C(Cl)=C[C@@H]2CC=CCCCC(=O)O[C@@H](CCCCC)CC=C2C(=O)C(Cl)=C[C@@H]2CC=CCCCC(=O)O[C@@H](CCCCC)CC=C2C(=O)C(Cl)=C[C@@H]2CC=CCCCC(=O)O1 : inactive
O=C(NCN1C(=O)c2cccc3cccc(c23)C1=O)N1CCC(Cc2ccccc2)CC1 : inactive

// query Identify the outcome logged in this assay for the compound shown: COC(=O)[C@]12CC[C@@H](C)[C@H](C)[C@@H]1C1=CC[C@@H]3[C@@]4(C)C[C@@H](OC(C)=O)[C@H](O)[C@@](C)(CO)[C@@H]4[C@H](O)C[C@@]3(C)[C@]1(C)CC2
// result active

// query How about this compound: O=C(N/N=C\c1ccccc1O)C1CC1
// result inactive

// query How about this compound: Nc1c(C(=O)Nc2cccc(Br)c2)sc2nc3c(cc12)C(=O)CCC3
// result inactive

From: PubChem BioAssay (NCI)
